TESTED_TARGET: recombinant human HDAC6 (Homo sapiens (Human))
TEST_DETAILS: Enzymatic screening, HDAC6 inhibition (fluorogenic FdL_G substrate)
METRIC: IC50 (nM)

CC1(C)NC(=O)c2cc(-c3cn(Cc4ccc(-c5nnc(C(F)F)o5)cc4)nn3)ccc21 = 264
FC(F)c1nnc(-c2ccc(Cn3cc(-c4cnc5cccnn45)nn3)cc2)o1 = 89
CC(c1ccc(-c2nnc(C(F)F)o2)cc1)n1nnc(-c2ccc3c(c2)C(=O)N(C)CC3)n1 (centres unmarked) = 179
CS(=O)(=O)NCC[C@@H](c1ccc(-c2nnc(C(F)F)o2)cc1)n1cc(-c2ccc(N)nc2)nn1 = 138
CC(=O)Nc1cccc(-c2cn(Cc3ccc(-c4nnc(C(F)F)o4)cn3)nn2)c1 = 17

1 = CNc1ccc(-c2nnn(Cc3ccc(-c4nnc(C(F)F)o4)cc3)n2)cc1NC(=O)N1CCOCC1
2 = CC1(C)C(=O)Nc2ccc(-c3cn(Cc4ccc(-c5nnc(C(F)F)o5)cn4)nn3)cc21
Input line: Returns: the argument ( 1 or 2 ) having the larger IC50. Output the label that corresponds to your choice.
Output line: 1
(1: 88 nM, 2: 18 nM)

* * *

TEST_DETAILS: Stability in rat plasma
TEST_CONTEXT: after 4 hours, 37° C.
METRIC: residual percentage in RAT PLASMA (%)

Nc1ccc(-c2cnn(Cc3ccc(-c4nnc(C(F)F)o4)cc3)c2)cn1 = 89
CC(c1ccc(-c2nnc(C(F)F)o2)cn1)n1cc(-c2ccc(N)nc2)nn1 (stereo not shown) = 83
Cc1ncc(-c2nnn(Cc3ccc(-c4nnc(C(F)F)o4)cc3)n2)cc1N = 76
O=C(c1cccc(-c2nnn(Cc3ccc(-c4nnc(C(F)F)o4)cc3F)n2)c1)N1CCOCC1 = 79
Nc1ncc(-c2nnn(Cc3ccc(-c4nnc(C(F)F)o4)cc3)n2)cn1 = 77
C[C@H](c1ccc(-c2nnc(C(F)F)o2)cc1)n1cc(-c2ccc(N)nc2)nn1 = 78
NC(=O)c1cccc(-c2nnn(Cc3ccc(-c4nnc(C(F)F)o4)cc3F)n2)c1 = 87

* * *

TESTED_TARGET: recombinant human HDAC6 (Homo sapiens (Human), UniProt Q9UBN7)
Sequence (Q9UBN7 whole entry): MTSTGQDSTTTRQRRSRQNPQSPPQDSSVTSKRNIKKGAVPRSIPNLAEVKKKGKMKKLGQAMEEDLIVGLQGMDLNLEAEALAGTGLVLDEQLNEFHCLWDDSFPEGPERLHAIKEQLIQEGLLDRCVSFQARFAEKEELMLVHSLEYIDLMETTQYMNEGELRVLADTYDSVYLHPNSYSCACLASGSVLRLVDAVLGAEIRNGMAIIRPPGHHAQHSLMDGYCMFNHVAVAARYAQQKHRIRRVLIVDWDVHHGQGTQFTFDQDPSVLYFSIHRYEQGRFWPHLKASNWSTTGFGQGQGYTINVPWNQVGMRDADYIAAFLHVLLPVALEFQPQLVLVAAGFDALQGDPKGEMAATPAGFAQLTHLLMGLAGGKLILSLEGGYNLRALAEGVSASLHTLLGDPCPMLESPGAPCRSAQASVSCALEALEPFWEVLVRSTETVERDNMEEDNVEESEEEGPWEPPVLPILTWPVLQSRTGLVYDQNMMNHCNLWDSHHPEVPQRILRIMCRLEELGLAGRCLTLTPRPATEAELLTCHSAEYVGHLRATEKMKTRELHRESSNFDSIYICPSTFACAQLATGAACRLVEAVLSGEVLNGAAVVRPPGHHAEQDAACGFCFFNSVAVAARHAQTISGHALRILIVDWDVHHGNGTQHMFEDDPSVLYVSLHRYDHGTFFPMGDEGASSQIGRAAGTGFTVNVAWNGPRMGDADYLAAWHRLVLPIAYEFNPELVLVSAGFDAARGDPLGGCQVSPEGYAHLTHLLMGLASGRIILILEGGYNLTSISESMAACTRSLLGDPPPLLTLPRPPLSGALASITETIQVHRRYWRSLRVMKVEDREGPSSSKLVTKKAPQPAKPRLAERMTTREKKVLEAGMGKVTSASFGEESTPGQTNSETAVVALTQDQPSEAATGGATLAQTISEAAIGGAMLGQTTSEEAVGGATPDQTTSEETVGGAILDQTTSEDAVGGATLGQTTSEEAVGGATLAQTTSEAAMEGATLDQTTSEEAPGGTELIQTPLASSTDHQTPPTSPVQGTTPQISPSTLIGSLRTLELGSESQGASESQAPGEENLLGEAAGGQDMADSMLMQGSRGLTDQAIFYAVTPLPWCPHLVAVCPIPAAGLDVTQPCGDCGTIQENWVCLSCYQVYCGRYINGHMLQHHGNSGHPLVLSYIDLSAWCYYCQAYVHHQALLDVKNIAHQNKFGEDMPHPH
TEST_DETAILS: Enzymatic screening, HDAC6 inhibition (fluorogenic FdL_G substrate)
METRIC: IC50 (nM)

Nc1nc2ccc(-c3cnn(Cc4ccc(-c5nnc(C(F)F)o5)cc4)c3)cc2s1 [compound 326] = 219
O=C1Nc2cc(-c3nnn(Cc4ccc(-c5nnc(C(F)F)o5)cc4)n3)ccc2NC12CCCC2 [compound 195] = 104
Nc1nc2ccc(-c3cn(Cc4ccc(-c5nnc(C(F)F)o5)c(F)c4F)nn3)cc2s1 [compound 341] = 135

I = O=C(NCc1ccco1)c1cccc(-c2nnn(Cc3ccc(-c4nnc(C(F)F)o4)cc3)n2)c1 [compound 96]
II = O=C(Nc1cccc(-c2cnn(Cc3ccc(-c4nnc(C(F)F)o4)cc3)c2)c1)N1CCOCC1 [compound 227]
III = NCc1ccc(-c2nc(Cc3ccc(-c4nnc(C(F)F)o4)cc3)no2)cc1 [compound 191]
IV = Nc1ccc(-c2cn(Cc3ccc(-c4nnc(C(F)F)o4)cn3)nn2)cn1 [compound 5]
V = Nc1ccc(-c2cn(C(CC3CCC3)c3ccc(-c4nnc(C(F)F)o4)cc3)nn2)cn1 (centres unmarked) [Compd. 242]
Input line: Rank the items in ascending order with respect to IC50. Use the labels to give the ranking in the order requested.
Output line: IV, I, III, II, V

* * *

TEST_DETAILS: Stability to Phase I metabolism in human S9 liver fraction
TEST_CONTEXT: after 90 minutes, 37° C.
METRIC: residual percentage in HUMAN S9 FRACTION (%)

Nc1nc2ccc(-c3cn(Cc4ccc(-c5nnc(C(F)F)o5)cn4)nn3)cc2[nH]1 = 80
O=C(c1cccc(-c2nnn(Cc3ccc(-c4nnc(C(F)F)o4)cc3F)n2)c1)N1CCOCC1 = 72
O=C1NCc2ccc(-c3nnn(Cc4ccc(-c5nnc(C(F)F)o5)c(F)c4)n3)cc21 = 84
O=C1Nc2ccc(-c3cn(Cc4ccc(-c5nnc(C(F)F)o5)cn4)nn3)cc2C12CCNC2 (centres unmarked) [compound 28] = 98
Nc1ccc(-c2cn(C(CN3CCCC3)c3ccc(-c4nnc(C(F)F)o4)cc3)nn2)cn1 (centres unmarked) = 91
Nc1ccc(-c2nc(Cc3ccc(-c4nnc(C(F)F)o4)cc3)no2)cn1 = 98
Nc1nc2ccc(-c3cn(Cc4ccc(-c5nnc(C(F)F)o5)cc4)nn3)cc2s1 = 93
Nc1nc2cc(-c3nnn(Cc4ccc(-c5nnc(C(F)F)o5)cn4)n3)ccc2o1 = 92
CCNc1nc2ccc(-c3cn(Cc4ccc(-c5nnc(C(F)F)o5)cn4)nn3)cc2[nH]1 = 82
FC(F)c1nnc(-c2ccc(Cn3cc(-c4ccc5[nH]c(N6CCOCC6)nc5c4)nn3)cc2)o1 = 91
CCC[C@@H](c1ccc(-c2nnc(C(F)F)o2)cc1)n1cc(-c2ccc(N)nc2)nn1 [compound 250] = 88
O=C1NCc2ccc(-c3nnn(Cc4c(F)cc(-c5nnc(C(F)F)o5)cc4F)n3)cc21 = 70
Nc1ncc(-c2nnn(Cc3ccc(-c4nnc(C(F)F)o4)cc3)n2)cn1 = 96
Nc1ccc(-c2nnn(Cc3ccc(-c4nnc(C(F)F)o4)cc3)n2)cn1 = 103
Cc1ncccc1-c1cn(Cc2c(F)cc(-c3nnc(C(F)F)o3)cc2F)nn1 = 99
CCNc1nc2ccc(-c3cn(Cc4ccc(-c5nnc(C(F)F)o5)cc4)nn3)cc2[nH]1 = 70
C[C@H](c1ccc(-c2nnc(C(F)F)o2)cn1)n1cc(-c2ccc(N)nc2)nn1 = 97
FC(F)c1nnc(-c2ccc(Cn3nnc(-c4ccc5ccccc5n4)n3)cc2)o1 = 76
CCNC(=O)c1cccc(-c2nnn(Cc3ccc(-c4nnc(C(F)F)o4)cc3)n2)c1 = 74
O=C(c1cccc(-c2nnn(Cc3ccc(-c4nnc(C(F)F)o4)cn3)n2)c1)N1CCOCC1 = 97
O=C(Nc1cc(-c2nnn(Cc3ccc(-c4nnc(C(F)F)o4)cn3)n2)ccc1O)N1CCOCC1 = 70
Nc1ccc(-c2nnc(Cc3ccc(-c4nnc(C(F)F)o4)cc3)o2)cn1 = 86
Nc1nc2cc(-c3cn(Cc4ccc(-c5nnc(C(F)F)o5)cc4)nn3)ccc2[nH]1 = 95
COc1ncccc1-c1cn(Cc2ccc(-c3nnc(C(F)F)o3)cn2)nn1 = 88
Fc1cc(-c2nnc(C(F)F)o2)cc(F)c1Cn1cc(-c2cnc3cccnn23)nn1 = 77
O=C1Nc2ccc(-c3cn(Cc4ccc(-c5nnc(C(F)F)o5)cn4)nn3)cc2NC12CCNCC2 = 89
FC(F)c1nnc(-c2ccc(Cn3cc(-c4ccc5nc(Cl)[nH]c5c4)nn3)nc2)o1 = 83
COc1ncc(NCc2ccc(-c3cn(Cc4ccc(-c5nnc(C(F)F)o5)cc4)nn3)cc2)cc1C(N)=O = 70
FC(F)c1nnc(-c2ccc(Cn3cc(-c4ccc(NC5=NCCN5)cc4)cn3)cc2)o1 = 81
CN1CCC(NC(=O)c2cccc(-c3nnn(Cc4ccc(-c5nnc(C(F)F)o5)cc4)n3)c2)CC1 = 94
O=C1Nc2ccc(-c3cn(Cc4ccc(-c5nnc(C(F)F)o5)cn4)nn3)cc2[C@@]12CCNC2 (single isomer, unassigned) = 92
Nc1ccc(-c2cn(Cc3ccc(-c4nnc(C(F)F)o4)cn3)cn2)cn1 = 96

* * *

Reported values of pIC50 for individual entries
TESTED_TARGET: recombinant human HDAC1 (Homo sapiens (Human))
Sequence (Q13547 whole entry): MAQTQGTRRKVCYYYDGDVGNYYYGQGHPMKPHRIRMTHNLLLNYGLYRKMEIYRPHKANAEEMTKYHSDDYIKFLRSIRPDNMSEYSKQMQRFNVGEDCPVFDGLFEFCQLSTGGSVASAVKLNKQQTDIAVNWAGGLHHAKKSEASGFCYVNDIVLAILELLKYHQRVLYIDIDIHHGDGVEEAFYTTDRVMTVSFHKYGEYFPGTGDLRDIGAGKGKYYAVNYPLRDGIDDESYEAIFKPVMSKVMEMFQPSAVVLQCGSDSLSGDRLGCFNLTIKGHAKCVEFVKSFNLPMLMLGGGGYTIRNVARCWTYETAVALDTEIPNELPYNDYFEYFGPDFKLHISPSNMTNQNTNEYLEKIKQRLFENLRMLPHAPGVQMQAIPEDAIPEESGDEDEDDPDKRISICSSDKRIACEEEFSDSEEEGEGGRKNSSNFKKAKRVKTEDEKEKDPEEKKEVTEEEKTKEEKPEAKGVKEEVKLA
TEST_DETAILS: Enzymatic screening, HDAC1 inhibition (fluorogenic FdL_G substrate)
Procedure: For each test compound, 100× concentrated DMSO solutions at 8 doses were prepared and then diluted in assay buffer (25 mM Tris-HCl, pH 8, 130 mM NaCl, 0.05% Tween-20, 10% Glycerol) to obtain 5× concentrated solutions in relation to the final concentrations (typical final concentration range—6.4-200000 nM or 0.18-50000 nM, final DMSO content—1%). […]
pIC50: −log10 of the molar value.

Nc1ncc2cc(-c3nnn(Cc4cc(F)c(-c5nnc(C(F)F)o5)cc4F)n3)ccc2n1 [compound 423] = 3.00
CCC[C@@H](c1ccc(-c2nnc(C(F)F)o2)cc1)n1cc(-c2cccc(NC(=O)N3CCOCC3)c2)nn1 (stereo in doubt) [compound 205] = < 3.70
O=C(Nc1cccc(-c2cn(Cc3ccc(-c4nnc(C(F)F)o4)c(F)c3F)nn2)c1)N1CCOCC1 [compound 338] = < 3.00

As a next step, examine the molecule that follows.
Input line: Lab note: need pIC50 with recombinant human HDAC1 (Homo sapiens (Human)) for entry Cn1c(N)nc2cc(-c3nnn(Cc4ncc(-c5nnc(C(F)F)o5)cn4)n3)ccc21 [compound 252] , please look it up.
Output line: < 3.70

* * *

TESTED_TARGET: recombinant human HDAC6 (Homo sapiens (Human))
TEST_DETAILS: Enzymatic screening, HDAC6 inhibition (fluorogenic FdL_G substrate)
pIC50: −log10 of the molar value.
METRIC: pIC50

Reference set, count: 3
O=C1NCc2ccc(-c3cn(Cc4ccc(-c5nnc(C(F)F)o5)cc4)nn3)cc21 = 7.38
Cn1c(N)nc2cc(-c3nnn(Cc4ccc(-c5nnc(C(F)F)o5)cc4F)n3)ccc21 = 7.59
Nc1ccc(-c2cn(Cc3ccc(-c4nnc(C(F)F)o4)cc3)nn2)cc1 = 7.35

P = Nc1nc2ccc(-c3cc(Cc4ccc(-c5nnc(C(F)F)o5)cc4)on3)cc2s1
Q = O=C(Nc1cccc(-c2nnn(Cc3c(F)cc(-c4nnc(C(F)F)o4)cc3F)n2)c1)N1CCOCC1
R = Nc1ccc(-c2cc(Cc3ccc(-c4nnc(C(F)F)o4)cc3)on2)cn1
S = FC(F)c1nnc(-c2ccc(Cn3cc(-c4ccc(NC5=NCCN5)cc4)nn3)nc2)o1
Input line: Number of compounds to sort: 4. Sort criterion: pIC50, ascending. List labels; respect the requested ordering.
Output line: P, R, Q, S
